- System: dog platelets
- PROCEDURE_DETAILS: Binding assay: inhibition of 3H-PAF binding to dog platelets
- APPLIED_CONDITIONS: 10 minutes at room temperature
OBSERVED_PROPERTY: pIC50
For clarity, pIC50 is expressed as the negative log10 of concentration in mol/L.

Supply recorded pIC50 for `O=C(CC[C@@H]1CC1(c1ccccc1)c1ccccc1)NCCCCc1cccnc1` here.
6.22

Supply recorded pIC50 for O=C(/C=C/C1CC1(c1ccc(F)cc1)c1ccc(F)cc1)NCCCCc1cccnc1 (racemic) here.
7.00

Supply recorded pIC50 for S=C(/C=C/C1CC1(c1ccccc1)c1ccccc1)NCCCCc1cccnc1 (racemic) here.
7.26

Supply recorded pIC50 for COc1cccc([C@]2(c3ccccc3)C[C@@H]2/C=C/C(=O)NCCCCc2cccnc2)c1 (relative stereo) here.
8.10

Supply recorded pIC50 for `O=C(/C=C/[C@@H]1CC1(c1ccc(F)cc1)c1ccc(F)cc1)NCCCCc1cccnc1` here.
7.60

Supply recorded pIC50 for `COc1cccc(C2(c3cccc(OC)c3)C[C@@H]2/C=C/C(=O)NCCCCc2cccnc2)c1` here.
6.52

Supply recorded pIC50 for `C[C@]1(/C=C/C(=O)NCCCCc2cccnc2)CC1(c1ccc(F)cc1)c1ccc(F)cc1` here.
6.30

Supply recorded pIC50 for `C[C@@]1(/C=C/C(=O)NCCCCc2cccnc2)CC1(c1ccc(F)cc1)c1ccc(F)cc1` here.
6.70

Supply recorded pIC50 for `O=C(/C=C/[C@H]1CC1(c1ccc(F)cc1)c1ccc(F)cc1)NCCCCc1cccnc1` here.
6.70
